The reported numbers originate from patent US20260184782A1.

Target: T1, recombinant human TIGIT (human, UniProt Q495A1 22-141, limits assumed)
T1 construct: recombinant human TIGIT used in Carterra SPR; also called hTIGIT
T1 sequence (looked up): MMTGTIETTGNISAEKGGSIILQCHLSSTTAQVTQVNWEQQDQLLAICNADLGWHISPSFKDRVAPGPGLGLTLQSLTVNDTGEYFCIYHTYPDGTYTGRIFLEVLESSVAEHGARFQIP
Assay: SPR Carterra, average
Label Met when Kd < 30 nM; otherwise Not met.

• TIGIT-SC134 (Fc fusion, VHH-Fc fusion in assay) VHH: EVQLVESGGGLVQPGGSLRLSCAASGFTLENNMMGWFRQAPGKEREFVAAISASGTLRAYADSVKGRFTISADNSKNTAYLQMNSLKPEDTAVYYCARWYRVNNWSPGYYYYMDVWGQGTLVTVSS = Met
• TIGIT-SC108 (Fc fusion, VHH-Fc fusion in assay) VHH: EVQLVESGGGLVQPGGSLRLSCAASGNTFSGGFMGWFRQAPGKEREWVASVLRGGYTWYADSVKGRFTISADNSKNTAYLQMNSLKPEDTAVYYCANGGRVWWAFDYWGQGTLVTVSS = Met
• TIGIT-SC19 (Fc fusion, VHH-Fc fusion in assay) VHH: EVQLVESGGGLVQPGGSLRLSCAASGRTYDAMGWFRQAPGKEREWVASVLRGGYTWYADSVKGRFTISADNSKNTAYLQMNSLKPEDTAVYYCARDVDYRFDSWGQGTLVTVSS = Met
• TIGIT-SC186 (Fc fusion, VHH-Fc fusion in assay) VHH: EVQLVESGGGLVQPGGSLRLSCAASGNTFSGGFMGWFRQAPGKEREYVASVLRGGYTWYADSVKGRFTISADNSKNTTYLQMNSLKPEDTAVYYCTTDRGYNWNYDWGQGTLVTVSS = Not met
• TIGIT-SC103 (Fc fusion, VHH-Fc fusion in assay) VHH: EVQLVESGGGLVQPGGSLRLSCAASGTITSAVFMGWFRQAPGKEREFVAAISWSGGDTNYADSVKGRFTISADNSKNTAYLQMNSLKPEDTAVYYCARWGGITFGGVYPLDYWGQGTLVTVSS = Not met
• TIGIT-SC180 (Fc fusion, VHH-Fc fusion in assay) VHH: EVQLVESGGGLVQPGGSLRLSCAASGFTLNDYAMGWFRQAPGKERELVAWIARYDGSTLYADSVKGRFTISADNSKNTAYLQMNSLKPEDTAVYYCASEVASGETDYWGQGTLVTVSS = Met
• TIGIT-SC118 (Fc fusion, VHH-Fc fusion in assay) VHH: EVQLVESGGGLVQPGGSLRLSCAASGRTFSFMGWFRQAPGKEREWVASVLRGGYTWYADSVKGRFTISADNSKNTAYLQMNSLKPEDTAVYYCAKDGGWFDPWGQGTLVTVSS = Not met
• TIGIT-SC207 (Fc fusion, VHH-Fc fusion in assay) VHH: EVQLVESGGGLVQPGGSLRLSCAASGFAFSSYVMGWFRQAPGKEREFVAAIWRSGTLKAYADSVKGRFTISADNSKNTEYLQMNSLKPEDTAVYYCARDDYGDTRRYFQHWGQGTLVTVSS = Met
